The reported measurements were obtained from PubChem BioAssay AID1159580.

// values below are reported normalized growth
Experiment: chemical genetic growth profiling, strain panel (AID 1159580);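 also: tested at 20 µM; growth read once vehicle control cultures reached saturation at 30 °C; 1 = growth at the plate median or of vehicle wells; lower values mean less growth of the strain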
Conditions: S. cerevisiae deletion strains, growth OD, locus YAL021C, strain ccr4, hits give low values
Screen size: about 5,500 compounds; about 2,000 (36%) were called active. Inconclusive results (about 18%) are left out. Some of the results follow.
VALUE KIND: normalized growth

> print(dat)
                                    molecule  measurement
 1  CC1=C(/C=C/C(C)=C/C=C/C(C)=C\C(=O)O)C(C)(C)CCC1         1.01
 2  c1cc2c(cc1[C@H]1OC[C@H]3[C@@H]1CO[C@H]3c1ccc3c(c1)OCO3)OCO2        0.936
 3  CC1(C)O[C@@H]2[C@@H](CO[C@@]3(COS(N)(=O)=O)OC(C)(C)O[C@@H]23)O1         1.03
 4                     CC12CCC(CC1)C(C)(C)O2        0.963
 5  CC(=O)O[C@H]1CC[C@@]2(C)C(=CCC3C2CC[C@]2(C)C(=O)CCC32)C1 (some centres not stated)        0.877
 6  CC[C@]12CCCN3CCc4c(n(c5ccccc45)[C@](O)(C(=O)OC)C1)[C@@H]32        0.986
 7  CCOC(=O)CCCCCCCCCCCCC1C=CCC1 (configuration not stated)         1.01
 8                           O=C(O)P(=O)(O)O         1.01
 9  CN1CCc2cccc3c2C1Cc1ccc(O)c(O)c1-3 (configuration not stated)         0.83
10  CC[C@]12CCCN3CCc4c(n(c5ccccc45)C(=O)C1)[C@@H]32        0.968
11  CC(=O)O[C@H]1CC[C@@]2(C)C(=CCC3C2CC[C@@]2(C)C3CC[C@@H]2C(C)CCCC(C)C)C1 (some centres not stated)            1
12  CC1=C(/C=C/C(C)=C/C=C/C(C)=C/CO)C(C)(C)CCC1         1.05
13  COc1cc2c(cc1O)CC1c3c(cc(O)c(OC)c3-2)CCN1C (configuration not stated)         1.02
14  N[C@@H](CCC(=O)N[C@@H](CCSC(CC(=O)O)C(=O)O)C(=O)NCC(=O)O)C(=O)O (some centres not stated)        0.991
15  COc1ccc2c(c1O)-c1c(OC)c(OC)cc3c1[C@H](C2)N(C)CC3        0.926
16  CC1=C(/C=C/C(C)=C/C=C/C(C)=C/C=C/C=C(C)/C=C/C=C(C)/C=C/C2=C(C)CCCC2(C)C)C(C)(C)CCC1        0.978
17                                 CCOC(N)=O        0.989
18                     O=C(O)c1ccc2c(c1)OCO2         1.01
19           COc1ccc(CN(CCN(C)C)c2ncccn2)cc1         1.01
20  CCCNC(C)C(=O)Nc1ccccc1C (configuration not stated)         1.01
21               COP(=S)(OC)Oc1ccc(SC)c(C)c1         1.07
22  COc1ccc(C[C@H](N)C(=O)N[C@@H]2[C@@H](CO)OC(n3cnc4c(N(C)C)ncnc43)[C@@H]2O)cc1 (some centres not stated)        0.977
